Numbers sourced from patent US20090209528A1.

Item-by-item account of inhibition at 0.01 µM
biological target: 5HT6-human recombinant receptor (Homo sapiens); construct: purchased Receptor Biology; host or cells: HEK-293 cell membranes; experiment: Binding to serotonin receptor 5-HT6 ([3H]-LSD displacement); settings: 1 h, compound at 10 nM; radioligand [3H]-LSD 2.7 nM
Where a name gives a salt, the structure may show the parent alone.

// solved cases for inhibition at 0.01 µM follow
compound: O=S(=O)(Nc1ccc2c(c1)CNCC2)c1csc2ccccc12 [Example 78, hydrochloride]
inhibition at 0.01 µM: 77.5%
//
compound: O=S(=O)(Nc1ccc2c(c1)CCNC2)c1c(Cl)nc2sccn12 [Example 10, hydrochloride]
inhibition at 0.01 µM: 85.8%

Now look at this entry.
Sample O=S(=O)(Nc1ccc2c(c1)CCNC2)c1cc2ccccc2s1 [Example 24, hydrochloride] ; inhibition at 0.01 µM observed: 53.6%

---

molecular target: 5HT6-human recombinant receptor (Homo sapiens, UniProt P50406); construct: purchased Receptor Biology; host or cells: HEK-293 cell membranes; test: Binding to serotonin receptor 5-HT6 ([3H]-LSD displacement); settings: 1 h, compound at 100 nM; radioligand [3H]-LSD 2.7 nM
Sequence (P50406 whole entry): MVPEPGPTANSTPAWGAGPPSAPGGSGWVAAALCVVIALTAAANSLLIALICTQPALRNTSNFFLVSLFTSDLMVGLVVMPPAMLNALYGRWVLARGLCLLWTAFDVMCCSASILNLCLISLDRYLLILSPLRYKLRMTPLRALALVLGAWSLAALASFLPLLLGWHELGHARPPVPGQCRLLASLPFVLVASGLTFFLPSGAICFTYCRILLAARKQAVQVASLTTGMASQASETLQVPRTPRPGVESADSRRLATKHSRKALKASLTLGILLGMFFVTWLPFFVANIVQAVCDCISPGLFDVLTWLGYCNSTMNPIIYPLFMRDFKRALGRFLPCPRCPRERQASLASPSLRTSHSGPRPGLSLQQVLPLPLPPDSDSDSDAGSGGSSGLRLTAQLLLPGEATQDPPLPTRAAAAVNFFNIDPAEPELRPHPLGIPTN
Counter-ions that a name gives are not always drawn.
measurement_label: inhibition at 0.1 µM (%)
Give a bare numeral; the unit % is implied.

compound: O=S(=O)(Nc1ccc2c(c1)CNCC2)c1cccc2c(Cl)cccc12 [Example 154, Hydrochloride]
assay_target: 5HT6-human recombinant receptor (Homo sapiens, UniProt P50406)
unit_symbol: %
inhibition at 0.1 µM: 85.1
//
compound: Cc1ccc(S(=O)(=O)Nc2ccc3c(c2)CN(C)CC3)c2ccccc12 [Example 56, hydrochloride]
assay_target: 5HT6-human recombinant receptor (Homo sapiens, UniProt P50406)
unit_symbol: %
inhibition at 0.1 µM: 92.8
//
compound: Cc1ccc2nsnc2c1S(=O)(=O)Nc1ccc2c(c1)CNCC2 [Example 76, hydrochloride]
assay_target: 5HT6-human recombinant receptor (Homo sapiens, UniProt P50406)
unit_symbol: %
inhibition at 0.1 µM: 83.2
//
compound: CC(C)(C)OC(=O)N1CCc2cc(NS(=O)(=O)c3cccnc3)ccc2C1
assay_target: 5HT6-human recombinant receptor (Homo sapiens, UniProt P50406)
unit_symbol: %
inhibition at 0.1 µM: 6.8

Sample `Cc1ccc(S(=O)(=O)Nc2ccc3c(c2)CCN(C(=O)OC(C)(C)C)C3)c2ccccc12` ; inhibition at 0.1 µM observed: 8.2

Sample CCc1ccc(OC)c(S(=O)(=O)Nc2ccc3c(c2)CNCC3)c1 [Example 86, hydrochloride] ; inhibition at 0.1 µM observed: 88.4

Sample `COc1ccc(C)cc1S(=O)(=O)Nc1ccc2c(c1)CCN(C(=O)OC(C)(C)C)C2` ; inhibition at 0.1 µM observed: -2

Sample `CN(c1ccc2c(c1)CC[N+](C)(C)C2)S(=O)(=O)c1cccc2ccccc12` ; inhibition at 0.1 µM observed: 19.6

Sample CN1CCc2cc(NS(=O)(=O)c3c(Cl)nc4sccn34)ccc2C1 [Example 19, hydrochloride] ; inhibition at 0.1 µM observed: 90

Sample O=S(=O)(Nc1ccc2c(c1)CNCC2)c1cccc2nonc12 [Example 72, hydrochloride] ; inhibition at 0.1 µM observed: 64.7

Sample O=S(=O)(Nc1ccc2c(c1)CCNC2)c1ccccc1-c1ccccc1 [Example 22, hydrochloride] ; inhibition at 0.1 µM observed: 90.8

Sample O=S(=O)(Nc1ccc2c(c1)CNCC2)c1ccccc1-c1ccccc1 [Example 62, hydrochloride] ; inhibition at 0.1 µM observed: 86.4

Sample CN1CCc2cc(NS(=O)(=O)c3ccc4ccccc4c3)ccc2C1 [Example 9, hydrochloride] ; inhibition at 0.1 µM observed: 86.5

Sample Cc1ccc(S(=O)(=O)Nc2ccc3c(c2)CNCC3)c2ccccc12 [Example 55, hydrochloride] ; inhibition at 0.1 µM observed: 84.9

Sample CCc1ccc(OC)c(S(=O)(=O)Nc2ccc3c(c2)CCNC3)c1 [Example 35, hydrochloride] ; inhibition at 0.1 µM observed: 81.6

Sample O=S(=O)(Nc1ccc2c(c1)CCNC2)c1cccc2c(Cl)cccc12 [Example 42, hydrochloride] ; inhibition at 0.1 µM observed: 88.9
